Origin of values: PubChem BioAssay

Assign composite z-score to each entry below.
METHOD: small-molecule binders of probe aInhba, primary screen, biochemical, small-molecule microarray, 635/667 nm fluorescence (AID 1148);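 also: score merges 667nm spot fluorescence with signal-to-noise for antibody binding to printed compounds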
CONDITION SUMMARY: higher = more signal
Answers are plain numbers.

Illustrative cases are given below, each with its answer.
CC/C=C/C(=O)N(C[C@@H]1CCCO1)[C@@H]1CC(C(=O)NCCO)=C[C@H](Oc2c(I)cc(CO)cc2OC)[C@H]1O : -0.128
Cc1ccc(S[C@]2(C(=O)NCCN3CCOCC3)CC(=O)N(C3Cc4ccccc4C3)[C@@H]2c2ccc(CO)cc2I)cc1 : 0.0756
CCc1cccc(NC(=O)O[C@H]2[C@H](OC(=O)Nc3ccccc3)[C@@H](OC(=O)Nc3ccccc3)[C@@H](OC)O[C@@H]2CO)c1 : 0.0785
[N-]=[N+]=NCc1ccccc1C[C@]1(C(=O)N2CCCCC2)N=C(c2ccc(OCCCO)cc2)O[C@H]1c1ccccc1CN=[N+]=[N-] : 0.233
COc1ccc(-c2ccccc2[C@@H]2N[C@H](C(=O)O)CC[C@H]2C)cc1 : -0.109

List composite z-score for every entry below, keeping the order given.
1. O=C/C=C/c1ccccc1Cl
2. O=C1O[C@H](c2ccccc2)[C@H](c2ccccc2)N2[C@H]1[C@@H](C(=O)Nc1nc3ccccc3s1)[C@]1(C(=O)Nc3ccc(C#CC4=CCCCC4)cc31)[C@H]2c1ccccc1OCCO
3. N#Cc1ccc(NN2C(C(O)CCc3ccccc3)C=CC3C(=O)N(c4ccccc4)C(=O)C32)cc1 (stereo unspecified)

Solution:
1: 0.0705; 2: 0.0649; 3: 0.194

List composite z-score for every entry below, keeping the order given.
1. O=C1C2C=CC(C(O)Cc3ccccc3)N(Nc3ccc([N+](=O)[O-])cc3)C2C(=O)N1c1ccccc1 (stereo unspecified)
2. COCCOC(=O)N1C(=O)[C@@]2(c3cc(C#CC4=CCCCC4)ccc31)[C@H](c1ccc(O)cc1)N1[C@H](c3ccccc3)[C@H](c3ccccc3)OC(=O)[C@H]1[C@@H]2C(=O)N1CCCCCCC1
3. CC(C)CN1C(=O)[C@@]2(Cc3ccccc31)c1ccccc1C(=O)N(C1CCCCC1)[C@H]2c1ccc(CO)cc1

Solution:
1. 0.46
2. 0.0818
3. -0.208

====

SYSTEM: NADPH oxidase 4 (Homo sapiens) (UniProt Q9NPH5)
Sequence (Q9NPH5 whole entry, looked up): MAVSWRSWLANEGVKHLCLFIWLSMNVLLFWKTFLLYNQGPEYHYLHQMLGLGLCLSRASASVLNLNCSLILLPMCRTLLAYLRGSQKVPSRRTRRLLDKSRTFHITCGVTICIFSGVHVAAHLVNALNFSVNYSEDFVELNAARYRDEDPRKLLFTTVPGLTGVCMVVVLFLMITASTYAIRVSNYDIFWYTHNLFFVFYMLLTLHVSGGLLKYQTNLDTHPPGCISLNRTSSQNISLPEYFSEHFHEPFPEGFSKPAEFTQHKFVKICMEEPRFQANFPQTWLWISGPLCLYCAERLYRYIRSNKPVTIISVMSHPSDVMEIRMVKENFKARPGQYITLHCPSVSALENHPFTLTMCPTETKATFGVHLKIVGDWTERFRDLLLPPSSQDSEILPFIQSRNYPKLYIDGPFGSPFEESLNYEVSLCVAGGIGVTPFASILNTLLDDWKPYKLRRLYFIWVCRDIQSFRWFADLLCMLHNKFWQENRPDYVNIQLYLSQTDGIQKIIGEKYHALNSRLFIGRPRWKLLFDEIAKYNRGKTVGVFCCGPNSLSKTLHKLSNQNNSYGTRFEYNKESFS
METHOD: NOX4-dependent H2O2 signal modulators, primary screen, NOX inhibitor project, cell-based, HEK293-NOX4, tetracycline-induced, Amplex Red fluorescence (AID 1160)
CONDITION SUMMARY: 45 min, higher = more signal, called active from +8 up or from −8 down
Assign z-score to each entry below.
Give bare numbers.

Illustrative cases are given below, each with its answer.
Cc1ccc(N2C(=O)c3ccccc3[C@](C)(C(=O)O)[C@@H]2c2ccc(CO)cc2)nc1 : -0.975
[N-]=[N+]=Nc1ccccc1C[C@@]1(C(=O)N2CCOCC2)N=C(c2ccc(OCCCO)cc2)O[C@@H]1c1ccccc1N=[N+]=[N-] : 0.516
NC(=O)NCC#Cc1ccc2c(c1)[C@]1(C(=O)N2)[C@H](c2ccccc2OCCO)N2[C@H](c3ccccc3)[C@H](c3ccccc3)OC(=O)[C@H]2[C@@H]1C(=O)N1CCN(c2ncccn2)CC1 : 0.958
COc1ccc([Si](C)(C)[C@H]2[C@H](CC(=O)N(CCO)Cc3ccccc3)O[C@@]3(C(=O)N(C)c4ccccc43)[C@@H]2C)cc1 : 0.129
CO[C@H]1COC(=O)[C@@H](C)COC(=O)[C@H](Cc2ccccc2)NC(=O)CC=C[C@H]1C : 0.791

List z-score for every entry below, keeping the order given.
1. C=C(C(=O)CC[C@H](OC(=O)c1ccccc1-c1ccccc1C(=O)O)c1ccc(CO)o1)C(C)C
2. C=C(COC)/C(=C/C[C@@H](OC(=O)c1ccncc1)c1ccc(OCCO)cc1)c1cc(C(=O)OC)ccc1OC
3. Cc1ccc(S(=O)(=O)N2[C@@H](c3ccccc3)C(C(=O)O)=CC[C@H]2c2ccccc2)cc1
4. CCOC(=O)C[C@H]1[C@H](OC(=O)c2cc3ccccc3oc2=O)[C@@H](NC(=O)C2CCCCC2)c2cc(OCCCO)ccc2N1C(=O)c1ccc2ccccc2n1
5. CCC(=O)[C@]12O[C@@]3([C@@H]4C(=O)OCC[C@@H]41)N(CC)C(C)=C(C(=O)OC)[C@@H](c1ccccc1)N3C2=O

Solution:
-0.621
2.24
-0.375
1.52
-1.36

List z-score for every entry below, keeping the order given.
1. C[C@@H]1CC[C@H]2C(=O)N3[C@@H](CC[C@@H](C)[C@@H]3c3cccc(N4CCOCC4)c3)C(=O)N2[C@H]1c1cccc(N2CCOCC2)c1
2. O=C/C=C/c1ccccc1Cl
3. C=CC[C@]1(C(=O)OC)N=C(c2ccc(OCCCO)cc2)O[C@H]1c1ccccc1CN=[N+]=[N-]
4. C=CCOC(=O)[C@@H]1[C@H]2C(=O)O[C@H](c3ccccc3)[C@H](c3ccccc3)N2[C@H](c2ccc(OCCOC(=O)[C@H]3C[C@H]4C(=O)N5CCC[C@H]5C(=O)N4[C@H]3c3ccc(O)cc3)cc2)[C@@]12C(=O)Nc1ccccc12
5. CC(C)[C@H]1NC(=O)[C@@]23C(=O)N[C@@H](Cc4ccccc4)C2[C@H](C)[C@@]2(C)O[C@H]2C3/C=C/C/C=C\CNC(=O)[C@H](C)NC1=O (stereo partly drawn)
6. CO[C@H]1COC(=O)[C@@H](C)NC(=O)CC=C[C@@H](C)[C@H](OC)COC(=O)CC=C[C@@H]1C

Solution:
1. -1.09
2. -0.729
3. -0.411
4. 0.0128
5. -0.833
6. 0.981

List z-score for every entry below, keeping the order given.
1. COc1ccc([Si](C)(C)[C@@H]2[C@@H](CC(=O)N(CCO)Cc3ccccc3)O[C@]3(C(=O)N(Cc4cccc(N5CCC5=O)c4)c4ccccc43)[C@H]2C)cc1
2. C=C(CCCC)/C(=C/C[C@@H](OC(=O)c1ccncc1)c1ccc(CO)o1)c1cnc2ccccc2c1
3. C=CCC(OC(C)=O)[C@@H]1[C@@H](N(Cc2cc3ccccc3o2)C(=O)Cc2ccc(F)cc2)c2cc(OCCCO)ccc2N1C(=O)c1ccc(-c2ccccc2)cc1 (stereo partly drawn)
4. CCCNC(=O)[C@@H]1c2ccccc2C(=O)N(C2CCCCC2)[C@H]1c1ccc(CO)cc1
5. CC(C)=C1C(=O)C(c2ccccc2)=C2CN3C(=O)N(CCc4ccccc4)C(=O)[C@]3(Cc3ccccc3)[C@H]21
6. CN(C)c1ccc(C(O)C2C=CC3C(=O)NC(=O)C3N2Nc2ccc(Cl)cc2Cl)cc1 (stereo not drawn)

Solution:
1: 1.48; 2: -0.546; 3: 0.684; 4: -0.201; 5: 0.1; 6: -4.56

So, Cc1ccc(N2C(=O)c3ccccc3[C@@H](C(=O)NCC(F)(F)F)[C@@H]2c2ccc(CO)cc2)nc1 ? Its z-score was 0.32

====

Assign composite z-score to each entry below.
SYSTEM: Alpha-bungarotoxin (Bungarus multicinctus) (UniProt P60615)
Sequence (P60615 whole entry, looked up): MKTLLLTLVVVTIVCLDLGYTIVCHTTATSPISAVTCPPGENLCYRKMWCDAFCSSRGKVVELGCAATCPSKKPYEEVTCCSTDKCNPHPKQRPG
METHOD: alpha-bungarotoxin binders on microarray, profiling panel, artefact control for SMM control protein annotation, biochemical, small-molecule microarray, Alexa647 label, 635/667 nm fluorescence (AID 1117)
CONDITION SUMMARY: alpha-BTX-A647 binding fluorescence, higher = more signal
One number for each entry.

COc1ccc([Si](C)(C)[C@@H]2[C@@H](CCO)O[C@]3(C(=O)N(Cc4ccc(NC(=O)[C@H](C)O)cc4)c4ccccc43)[C@H]2C)cc1 : 0.94
Cc1ccc(S[C@]2(C(=O)O)CC(=O)N(Cc3ccccc3)[C@@H]2c2ccc(CO)cc2)cc1 : -0.198
COc1ccc(-c2cc3c(c(-c4ccccc4)n2)[Si](C(C)C)(C(C)C)O[C@H]3c2ccccc2)cn1 : 0.599
COc1ccc(C(=O)Nc2ccc(CN3C(=O)[C@]4(O[C@H](CCn5cc(CCO)nn5)[C@@H]([Si](C)(C)c5ccc(OC)cc5)[C@@H]4C)c4ccccc43)cc2)cc1 : 1.31
CCN1C(C)=C(C(=O)OC)[C@@H](c2ccccc2)N2C(=O)[C@](O)(C(=O)OC)[C@@H](c3ccccc3)C(C(=O)c3ccccc3)=C12 : 0.232

List composite z-score for every entry below, keeping the order given.
1. CC(C)(C)OC(=O)CC[C@]1(C(=O)NCCN2CCOCC2)N=C(c2ccc(OCCCO)cc2)O[C@H]1c1ccccc1CN=[N+]=[N-]
2. CC(=O)Nc1ccc([C@H]2[C@H](C)CC[C@H]3C(=O)N4[C@@H](CC[C@@H](C)[C@@H]4c4ccc(NC(C)=O)cc4)C(=O)N32)cc1
3. CC/C=C/C(=O)N(C[C@@H]1CCCO1)[C@@H]1CC(C(=O)NCCO)=C[C@H](Oc2c(I)cc(CO)cc2OC)[C@H]1O
4. O=C(O)[C@@H]1Cc2c([nH]c3ccccc23)[C@@H](c2ccccc2)N1

Solution:
2.01
0.884
0.515
0.236

List composite z-score for every entry below, keeping the order given.
1. COc1ccc(-c2ccccc2[C@@H]2N[C@H](C(=O)O)CC[C@H]2C)cc1
2. CC(C)CN1C(=O)[C@@]2(Cc3ccccc31)c1ccccc1C(=O)N(C1CCCCC1)[C@H]2c1ccc(CO)cc1
3. C=CCNC(=O)[C@H]1[C@@H]2C(=O)O[C@@H](c3ccccc3)[C@@H](c3ccccc3)N2[C@@H](c2ccccc2OCCO)[C@]12C(=O)N(C(=O)OCCOC)c1ccc(C#CCNC(N)=O)cc12

Solution:
1. 0.288
2. -1.06
3. 1.81

List composite z-score for every entry below, keeping the order given.
1. CO[C@H]1COC(=O)[C@H](Cc2ccccc2)NC(=O)CC=C[C@@H](C)[C@H](OC)COC(=O)CC=C[C@@H]1C
2. Cc1ccc(S[C@]2(C(=O)NC3CC3)CC(=O)N(Cc3cc(C(F)(F)F)cc(C(F)(F)F)c3)[C@@H]2c2ccc(CO)cc2)cc1
3. COCCCNC(=O)[C@@]1(c2ccc([N+](=O)[O-])cc2)CC(=O)N(C2CCCCC2)[C@@H]1c1ccc(CO)cc1
4. CN1C2C=C(c3ccc(CO)cc3)C(C3C(=O)N(C(N)=O)C(=O)C32)C1c1cccs1 (centres undefined)
5. COCCCNC(=O)[C@@H]1c2ccccc2C(=O)N(CC23CC4CC(CC(C4)C2)C3)[C@H]1c1ccc(CO)cc1
6. CCOC(=O)C[C@H]1[C@H](OC(=O)c2ccccc2-c2ccccc2)[C@@H](NC(=O)c2ccc(-c3ccccc3)cc2)c2cc(OCCCO)ccc2N1C(=O)Cc1ccc(OC)cc1
7. COc1ccc(CCN2C(=O)[C@@]3(c4ccc([N+](=O)[O-])cc4)CC(=O)N(CC45CC6CC(CC(C6)C4)C5)[C@@H]3c3ccc(CO)cc32)cc1

Solution:
[0.426, 0.296, -0.374, -1.09, 0.253, 0.322, 0.119]

List composite z-score for every entry below, keeping the order given.
1. CCC1=C2CN(Cc3ccccc3Br)[C@@H]([C@@H](O)Cc3ccccc3)C2C=CCC1 (some centres undefined)
2. [N-]=[N+]=NCc1ccccc1[C@H]1OC(c2ccc(OCCCO)cc2)=N[C@@]1(Cc1ccccc1N=[N+]=[N-])C(=O)NCc1ccccc1

Solution:
0.616
1.71
